Task for the reader: assign each of the following compounds its reported pIC50.
Target of assay: WT EGFR (Homo sapiens, UniProt P00533)
Sequence (P00533 25-1210): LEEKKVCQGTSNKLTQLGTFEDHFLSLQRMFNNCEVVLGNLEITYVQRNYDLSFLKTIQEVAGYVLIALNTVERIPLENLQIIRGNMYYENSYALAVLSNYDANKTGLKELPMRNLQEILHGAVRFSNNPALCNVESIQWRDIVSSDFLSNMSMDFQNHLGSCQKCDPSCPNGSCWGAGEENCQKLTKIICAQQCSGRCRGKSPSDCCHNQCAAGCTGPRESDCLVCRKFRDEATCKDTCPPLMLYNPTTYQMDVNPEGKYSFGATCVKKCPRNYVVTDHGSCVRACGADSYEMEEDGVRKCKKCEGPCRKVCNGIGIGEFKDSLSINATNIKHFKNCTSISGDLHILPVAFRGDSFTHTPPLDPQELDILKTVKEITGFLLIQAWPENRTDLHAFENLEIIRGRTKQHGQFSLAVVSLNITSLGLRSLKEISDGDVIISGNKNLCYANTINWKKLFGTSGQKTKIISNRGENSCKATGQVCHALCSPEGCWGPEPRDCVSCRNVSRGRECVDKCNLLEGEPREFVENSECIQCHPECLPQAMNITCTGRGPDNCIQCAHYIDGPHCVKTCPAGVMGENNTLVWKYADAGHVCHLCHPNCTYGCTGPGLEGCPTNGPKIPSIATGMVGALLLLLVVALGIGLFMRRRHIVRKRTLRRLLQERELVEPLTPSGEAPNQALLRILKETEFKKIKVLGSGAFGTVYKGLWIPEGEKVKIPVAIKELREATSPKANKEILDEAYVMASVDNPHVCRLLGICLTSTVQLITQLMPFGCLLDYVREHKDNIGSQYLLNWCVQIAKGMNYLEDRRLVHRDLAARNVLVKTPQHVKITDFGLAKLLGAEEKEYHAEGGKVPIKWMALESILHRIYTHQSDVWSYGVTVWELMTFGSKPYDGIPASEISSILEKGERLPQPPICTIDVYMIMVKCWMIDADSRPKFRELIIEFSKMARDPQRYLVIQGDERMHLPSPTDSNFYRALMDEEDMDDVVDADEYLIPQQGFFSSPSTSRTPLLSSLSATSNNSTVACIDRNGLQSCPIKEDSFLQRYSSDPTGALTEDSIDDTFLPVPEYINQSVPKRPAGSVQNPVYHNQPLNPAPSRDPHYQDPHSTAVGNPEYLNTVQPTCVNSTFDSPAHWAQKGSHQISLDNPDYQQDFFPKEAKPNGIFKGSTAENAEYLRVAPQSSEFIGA
Assay: WT EGFR cellular phosphorylation inhibition in A-431 (hEGF stimulated, MSD);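 note: electrochemiluminescence read-out of EGFR Tyr1068 phosphorylation expressed as ratio to total EGFR, cells kept in medium with 1% FBS, compounds tested as a concentration series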
Study conditions: A431 cells, 4 h compound, then 100 ng/ml hEGF 10 min
To interpret pIC50, take it as minus log10 of a concentration measured in moles per litre.

pIC50 value, target or system WT EGFR (Homo sapiens, UniProt P00533), for C=CC(=O)Nc1cc(Nc2ncnc(Nc3cc(F)c(Cl)cc3C(C)(C)O)n2)c(OC)cc1N1CC[C@@H]1CN(C)C : 7.56

pIC50 value, target or system WT EGFR (Homo sapiens, UniProt P00533), for C=CC(=O)Nc1cc(Nc2nccc(Nc3cc(Cl)c(F)cc3C(C)(C)O)n2)c(OC)cc1N1CC[C@@H](N(C)C)C1 : 7.09

pIC50 value, target or system WT EGFR (Homo sapiens, UniProt P00533), for C=CC(=O)Nc1cc(Nc2ncnc(Nc3cccnc3C(C)(C)O)n2)c(OC)cc1N(C)CCN(C)C : 7.37

pIC50 value, target or system WT EGFR (Homo sapiens, UniProt P00533), for C=CC(=O)Nc1cc(Nc2ncc(C(F)(F)F)c(Nc3cc(Cl)c(F)cc3C(C)(C)O)n2)c(OC)cc1N1CC[C@@H](N(C)C)C1 : 6.22
